# System Tested: Taq DNA polymerase (I532T/R536C/K540C/H784C)/(R25S/Y81F/G187A) (UniProt P19821 P19821:1-832, I532T,R536C,K540C,H784C,R25S,Y81F,G187A)
# Sequence (P19821 whole entry R25S/Y81F/G187A/I532T/R536C/K540C/H784C, one chain of several): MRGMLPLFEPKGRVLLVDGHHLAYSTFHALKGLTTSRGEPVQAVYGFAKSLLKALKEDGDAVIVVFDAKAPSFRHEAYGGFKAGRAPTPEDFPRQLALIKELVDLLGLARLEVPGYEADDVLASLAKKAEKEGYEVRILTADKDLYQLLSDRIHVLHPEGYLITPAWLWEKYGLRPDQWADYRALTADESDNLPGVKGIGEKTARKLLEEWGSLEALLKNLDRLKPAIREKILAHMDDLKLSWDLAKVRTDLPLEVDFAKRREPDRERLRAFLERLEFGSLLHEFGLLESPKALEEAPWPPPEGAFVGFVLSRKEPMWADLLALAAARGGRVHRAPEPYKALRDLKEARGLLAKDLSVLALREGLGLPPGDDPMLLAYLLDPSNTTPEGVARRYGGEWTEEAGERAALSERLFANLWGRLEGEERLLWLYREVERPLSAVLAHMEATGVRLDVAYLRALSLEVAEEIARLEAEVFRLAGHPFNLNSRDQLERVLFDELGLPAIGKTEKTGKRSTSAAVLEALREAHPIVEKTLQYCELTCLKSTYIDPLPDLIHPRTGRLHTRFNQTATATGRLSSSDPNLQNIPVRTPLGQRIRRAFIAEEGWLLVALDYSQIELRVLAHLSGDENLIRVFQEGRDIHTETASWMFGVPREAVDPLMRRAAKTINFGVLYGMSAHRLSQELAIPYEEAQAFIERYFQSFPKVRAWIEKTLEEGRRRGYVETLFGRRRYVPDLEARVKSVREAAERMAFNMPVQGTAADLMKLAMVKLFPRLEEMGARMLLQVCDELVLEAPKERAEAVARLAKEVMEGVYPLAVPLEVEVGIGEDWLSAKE
# Assay Procedure: EMSA; 1x TAE with 2 mM EDTA, pH 8.3; above highest tested 1000 nM
# Experimental Parameters: tags: Fermentas; label: 5'-33P
Metric Name: Kd (µM)
Respond with the bare value in µM.

**Query** Return value of Kd for input TTTTAGCCGCTAGAGTCGACCTGC (ssDNA) [24 nt primer] , no commentary.
**Result** 7.7
